System: COLO 205 colon
Experiment: NCI tumour cell line growth inhibition, 48 h
Metric: TGI

{"Molecule": "CCOC(=O)NC(=O)c1cn(CCNCCO)c(=O)[nH]c1=O", "Measured": "> 100 µM"}
{"Molecule": "COc1ccc(-c2nc(-c3nc4ccc(Cl)cc4[nH]3)c3ccccn23)cc1", "Measured": "13.3 µM"}
{"Molecule": "C#CCNC(=O)c1cccc2c1cc(C)n2-c1nc2c(c(NCc3ccccc3)n1)CCCC2", "Measured": "0.0382 µM"}
{"Molecule": "COc1ccc(C[C@@H](CO)NC2=C(C#N)CCC2)cc1", "Measured": "> 100 µM"}
{"Molecule": "O=C(O)CCSC(=O)Nc1ccc([N+](=O)[O-])cc1", "Measured": "> 100 µM"}
{"Molecule": "Nc1nc2c(nnn2C2CC(O)C(CO)O2)c(=O)[nH]1 (stereo unspecified)", "Measured": "6.3 µM"}

All values here come from PubChem BioAssay (NCI).
